TEST_NAME: yeast display, Sf9 membrane polyspecificity reagent, FACS + sequencing; frameworks hold sequencing errors

{"SEQUENCE_CHAIN": "QVQLVESGGGLVQAGGSLRLSCASSGRIFKKYAMGWYIQAPGKERELVATISSGGSTYYADSVKGRFTISRDNAKNTVYLQMNSLKREDTAGSYCARREYVRRDYFVTTYDYWGQGTQVTVSS", "polyreactivity (PSR sort gate)": "low polyreactivity"}
{"SEQUENCE_CHAIN": "QVQLVESGGGLVQAGGSLRLSCAASGSIFPLYAMGWYRQAPGKERELVADITVSGGSTYYADSVKGRFTISRDNAKNTVYLQMNSLKPEDTAVYYCNADDRSPFPDYWWYPYDYDYWGQGTQVTVSS", "polyreactivity (PSR sort gate)": "low polyreactivity"}
